Attribute: self-splicing fitness (ln)
Protocol summary: self-splicing fitness, log relative to wild type (ln ratio); higher = more splicing; Tetrahymena group I intron in knt gene, E. coli kanamycin selection, DiMSum; sequences stand for … in CUCUCU…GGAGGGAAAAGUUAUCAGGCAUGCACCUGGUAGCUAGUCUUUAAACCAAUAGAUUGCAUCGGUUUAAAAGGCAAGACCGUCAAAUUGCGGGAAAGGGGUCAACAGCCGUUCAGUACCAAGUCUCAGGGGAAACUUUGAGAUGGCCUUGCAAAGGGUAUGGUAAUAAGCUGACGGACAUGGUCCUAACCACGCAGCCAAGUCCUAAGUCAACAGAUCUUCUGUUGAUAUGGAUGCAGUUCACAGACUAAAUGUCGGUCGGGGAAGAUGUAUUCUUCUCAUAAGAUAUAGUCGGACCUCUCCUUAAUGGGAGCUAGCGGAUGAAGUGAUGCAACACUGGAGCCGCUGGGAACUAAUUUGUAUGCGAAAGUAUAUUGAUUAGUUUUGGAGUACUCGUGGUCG;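 further: selection with 25 µg/mL kanamycin versus none on LB agar overnight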
Condition context: 37 °C

{"columns": ["Monomer sequence", "self-splicing fitness (ln)"],
 "data": [
  ["CUUGAGCAAUAUUACGCUCA", -2.33],
  ["CGUUAGCAAUAUUACGAUUU", -1.66],
  ["UGUUAGCAAUAUUACGGACG", -0.257],
  ["GUGCAGCAAUAUUACGAAAU", -0.452],
  ["UGCUAGCAAUAUUACGUUAU", -2.33],
  ["AGAUAGCAAUAUUACGUUAU", -3.55],
  ["CUACAGCAAUAUUACGAAGG", -1.49],
  ["AGAGAGCAAUAUUACGGUUG", -1.45],
  ["CGCCAGCAAUAUUACGUAGC", -3.11],
  ["CUUUAGCAAUAUUACGUUUU", -2.39],
  ["UCUCAGCAAUAUUACGUUGG", -3.73],
  ["AUUCAGCAAUAUUACGGCAC", -0.407],
  ["GCUUAGCAAUAUUACGCCCU", -0.719],
  ["AGUAAGCAAUAUUACGAUGC", -1.67],
  ["AAUCAGCAAUAUUACGGAAU", -0.35],
  ["CCCGAGCAAUAUUACGGCAA", -2.32],
  ["UAACAGCAAUAUUACGUUCA", 0.0141],
  ["UAUUAGCAAUAUUACGCACC", -0.337],
  ["UACUAGCAAUAUUACGAAGC", -3.04],
  ["CGUAAGCAAUAUUACGGUCA", -0.467],
  ["ACGUAGCAAUAUUACGGGAA", -3.19],
  ["GCUAAGCAAUAUUACGGGCA", -1.11],
  ["AUGCAGCAAUAUUACGCCGG", -0.877],
  ["AAGAAGCAAUAUUACGAAGG", -2.01],
  ["ACUGAGCAAUAUUACGGGAU", -2.18],
  ["GAGAAGCAAUAUUACGGCUU", -1.75],
  ["UUAGAGCAAUAUUACGACGU", -0.776],
  ["AUAGAGCAAUAUUACGUCGG", -2.27],
  ["AUUGAGCAAUAUUACGUGUC", -2.53],
  ["GCGUAGCAAUAUUACGCUAU", -2.46],
  ["ACUCAGCAAUAUUACGGCCU", -0.0329],
  ["GGUUAGCAAUAUUACGGUAC", -0.6],
  ["CUUAAGCAAUAUUACGGGAU", -1.94],
  ["GCGCAGCAAUAUUACGUAAG", -0.943]
]}

###

Protocol summary: self-splicing fitness, log relative to wild type (ln ratio); higher = more splicing; Tetrahymena group I intron in knt gene, E. coli kanamycin selection, DiMSum; sequences stand for … in CUCUCU…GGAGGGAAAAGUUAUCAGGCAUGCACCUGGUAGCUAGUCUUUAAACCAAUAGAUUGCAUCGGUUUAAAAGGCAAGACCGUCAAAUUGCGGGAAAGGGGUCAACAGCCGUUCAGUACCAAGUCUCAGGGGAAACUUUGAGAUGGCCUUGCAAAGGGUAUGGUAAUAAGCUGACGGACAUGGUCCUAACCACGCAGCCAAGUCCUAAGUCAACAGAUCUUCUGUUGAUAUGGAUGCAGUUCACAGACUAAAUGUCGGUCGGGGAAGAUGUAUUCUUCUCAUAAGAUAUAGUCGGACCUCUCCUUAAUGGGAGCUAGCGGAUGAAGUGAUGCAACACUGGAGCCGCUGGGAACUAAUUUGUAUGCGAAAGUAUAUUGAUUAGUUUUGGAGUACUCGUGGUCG
Condition context: 37 °C

{"columns": ["Monomer sequence", "self-splicing fitness (ln)"],
 "data": [
  ["GGACAGCAAUAUUACGGGAU", -0.814],
  ["GAGUAGCAAUAUUACGCGCA", -0.701],
  ["UAAAAGCAAUAUUACGCCCC", 0.13],
  ["GCGAAGCAAUAUUACGUGGA", -2.88],
  ["AUAGAGCAAUAUUACGCAGU", -0.369],
  ["CGAAAGCAAUAUUACGAGGA", -1.13],
  ["CACCAGCAAUAUUACGAGCG", 0.288],
  ["CUUCAGCAAUAUUACGAGGU", -2.9],
  ["GGUCAGCAAUAUUACGUUUA", -0.167],
  ["GAGAAGCAAUAUUACGGCCU", 0.2],
  ["ACCAAGCAAUAUUACGCAGG", -2.59],
  ["AUCGAGCAAUAUUACGGCAU", -0.101],
  ["UCAAAGCAAUAUUACGCCCA", -0.49],
  ["ACACAGCAAUAUUACGUUAG", -2.44],
  ["UCGUAGCAAUAUUACGACGA", -0.365],
  ["UGAUAGCAAUAUUACGAACG", -0.0562],
  ["GUUGAGCAAUAUUACGCUUA", -0.787],
  ["CUCGAGCAAUAUUACGUCUA", -2.43],
  ["UUACAGCAAUAUUACGUUCA", 0.086],
  ["AAGUAGCAAUAUUACGAUUC", -0.577],
  ["ACGGAGCAAUAUUACGGUAA", -3.1],
  ["AUAUAGCAAUAUUACGUGAU", -0.895],
  ["GCAUAGCAAUAUUACGAAUA", -1.38],
  ["AGGAAGCAAUAUUACGGUGU", -1.48],
  ["AUUCAGCAAUAUUACGGAAG", -0.0127],
  ["CGUGAGCAAUAUUACGGUUU", -3.28],
  ["UAUGAGCAAUAUUACGUCAG", -2.51],
  ["UGCCAGCAAUAUUACGAGGG", -1.94],
  ["UACAAGCAAUAUUACGGUAU", -2.54],
  ["AAGCAGCAAUAUUACGAUAU", -0.0114],
  ["UUACAGCAAUAUUACGAGGC", -1.85],
  ["GGUAAGCAAUAUUACGCGCC", -1.48],
  ["UCAUAGCAAUAUUACGUUCG", -0.686],
  ["GCACAGCAAUAUUACGGCGG", -2.78],
  ["UCACAGCAAUAUUACGCUGU", -2.19],
  ["ACGAAGCAAUAUUACGCUGU", -0.576],
  ["CUCGAGCAAUAUUACGGCAU", -3.09],
  ["AGUCAGCAAUAUUACGGGUC", -1.43],
  ["ACAAAGCAAUAUUACGACGA", -0.207],
  ["AAACAGCAAUAUUACGUUAG", -1.72],
  ["CCGUAGCAAUAUUACGGCCU", -2.7],
  ["CACUAGCAAUAUUACGACUC", -2.63],
  ["AGCCAGCAAUAUUACGGUAG", -0.58],
  ["CGUUAGCAAUAUUACGAGCU", -0.739],
  ["GAGAAGCAAUAUUACGUGAA", -1.23],
  ["UGGGAGCAAUAUUACGUAGG", -1.93],
  ["AGCGAGCAAUAUUACGGCAG", -1.07],
  ["CGUCAGCAAUAUUACGCUUC", -3.11],
  ["CGUGAGCAAUAUUACGGAGU", -1.14],
  ["CAUCAGCAAUAUUACGGGCG", -0.377],
  ["AGGAAGCAAUAUUACGAGUA", -2.21],
  ["AGGGAGCAAUAUUACGUGAU", -2.91],
  ["UGCAAGCAAUAUUACGCCUC", -1.23],
  ["UGGGAGCAAUAUUACGAGCG", -0.816],
  ["ACGCAGCAAUAUUACGGGGC", -3.15],
  ["CACUAGCAAUAUUACGAUGA", -1.01],
  ["CCAGAGCAAUAUUACGACUC", -1.12],
  ["UCCAAGCAAUAUUACGGGGU", -1.96],
  ["AAUGAGCAAUAUUACGGUCA", -1.45],
  ["UCAGAGCAAUAUUACGGGAG", -2.14],
  ["AGCUAGCAAUAUUACGCUAC", -2.77],
  ["UCUAAGCAAUAUUACGCAAU", -3.12],
  ["CGAAAGCAAUAUUACGUCCA", -0.276],
  ["ACUCAGCAAUAUUACGUAUA", -1.11],
  ["AAGUAGCAAUAUUACGCGGA", -1.04],
  ["CCCAAGCAAUAUUACGUGGA", -0.376],
  ["GGGUAGCAAUAUUACGUACA", -0.763]
]}
